Kindly state IC50 for each of the entries shown.
Molecular target: MHC II molecules
Assay: MHC/peptide competition binding assay with a radiolabelled known MHC binding peptide
Details: purified MHC, incubation 2-4 days, non-binding defined as IC50≥30,000 nM
Where no end group is shown, it is not given here.

Which IC50 is reported with MHC II molecules for this entry: SLPMPQPSLRYRQPS [Variant P2i] ?
> 40 µM

Note, next up: QLPYSQPHRPYHQPQ [Variant P2d]
> 40 µM

Note, next up: LQLQPFPQPHLFPPQ [Variant P1c]
38.6 µM

Note, next up: PGGQPHLPGGQPQPF [Variant P3g]
> 40 µM

Note, next up: HLPGPQPHLSYPQPH [Variant P2e]
> 40 µM

Note, next up: LQLQPFPQPPLPYGQ [Variant P1e]
30.7 µM

Note, next up: PYSQPHRPYHQPQPF [Variant P3e]
> 40 µM

Note, next up: PQPFPPLPYPQPQSF [Variant P3i]
> 40 µM

Note, next up: TLPSPQPTLGYGQPT [Variant P2h]
> 40 µM

Note, next up: FPPQPHPFPPQPQPF [Variant P3h]
> 40 µM
